Reported Kd values for a set of binders
testedOn: T1, Biotinylated human TSLP (hTSLP(29-159)-Avi) (human, biotinylated (C-terminal Avi-tag))
T1 construct: also called thymic stromal lymphopoietin
test: SPR, biotinylated hTSLP on streptavidin chip, peptide injected
*1 amine or outer side, *2 acyl side, *3 side chain or, on linkers, in order; H or OH if unused. Bridges are numbered along the chain shown (N, C = ends). Where no end group is shown, it is not given here. [ ]: non-standard residue; d: D form. The star is where a group is joined. N3CH2C(O)NH(CH2CH2O)2CH2C(O) = [N-]=[N+]=NCC(=O)NCCOCCOCC(=O)*; TATA = O=C(CC[*:1])N1CN(C(=O)CC[*:2])CN(C(=O)CC[*:3])C1; Trp(1-Me) = Cn1cc(C[C@H](N)C(=O)O)c2ccccc21; Arg(Me2a) = CN(C)C(=N)NCCC[C@H](N)C(=O)O; Phe(4-F) = N[C@@H](Cc1ccc(F)cc1)C(=O)O; tBuAla = CC(C)(C)C[C@H](N)C(=O)O; NMeA = CN[C@@H](C)C(=O)O
experimentalEndpoint: Kd (nM)

binder	experimentalEndpoint	resultUnits	recordedValue
ACDELDIPCWIFKTLCA (linker 2-9-16 via TATA; not fully specified (C-terminus)) [Example 232]	Kd	nM	8300
{N3CH2C(O)NH(CH2CH2O)2CH2C(O)}-C[NMeA][Trp(1-Me)][tBuAla]QDC[Trp(1-Me)][Arg(Me2a)]G[Phe(4-F)]C-NH2 (linker 1-7-12 via TATA; also: dimer: peptides clicked via N-terminal azido linker to N2,N6-dipent-4-ynoyl-L-lysine core (source also calls it trimeric), Claim 16 speaks of a dimeric or trimeric moiety) [Example 251]	Kd	nM	0.14
SPTEPPCDWHWEYDCWLSC (linker 7-15-19 via TATA; not fully specified (C-terminus)) [Example 215]	Kd	nM	240

These entries and their values trace back to patent US20220363718A1.
